Tested on: Aβ40 in conditioned medium of cells stably expressing Amyloid Precursor Protein (APP)
testMethodNotes: In vitro BACE cell-based assay (Aβ40 in conditioned medium, sandwich ELISA)
assayContext: Homo sapiens, HEK293, average IC50; read-out: HEK cell assay
measurementLabel: IC50 (nM)

Field: example entries. Status: answers known.
# compound, IC50 (nM)
measured = [
    ("Cc1ccc(Oc2ccc3c(c2)[C@@]2(COC(N)=N2)c2cc(C4=CCOCC4)cc(F)c2O3)nc1", 442),
    ("NC1=N[C@@]2(CO1)c1cc(-c3cccnc3F)ccc1Oc1c(F)cc(N3CCC(F)(F)C3)cc12", 4.1),
    ("N#Cc1cccc(-c2cc3c(cn2)Oc2c(F)cc(C4=CCOCC4)cc2[C@]32COC(N)=N2)c1", 117),
]

(A) NC1=N[C@@]2(CS1)c1cc(-c3cccnc3F)ccc1Oc1c(F)cc(N3CC4CC3CO4)cc12 (stereo partly drawn)
(B) CC1(COc2cc(F)c3c(c2)[C@]2(COC(N)=N2)c2cc(-c4cccnc4)c(F)cc2O3)COC1
(C) CC1(/C=C/c2cnc3c(c2)[C@]2(COC(N)=N2)c2cc(-c4ccc(F)nc4)ccc2O3)COC1
Please produce an ascending ranking of these compounds based on IC50. Write the labels in rank order as requested.
C, A, B

----------
targetOrSystem: Beta Secretase enzyme (BACE) (Homo sapiens, UniProt P56817)
Sequence (P56817 46-501, species assumed): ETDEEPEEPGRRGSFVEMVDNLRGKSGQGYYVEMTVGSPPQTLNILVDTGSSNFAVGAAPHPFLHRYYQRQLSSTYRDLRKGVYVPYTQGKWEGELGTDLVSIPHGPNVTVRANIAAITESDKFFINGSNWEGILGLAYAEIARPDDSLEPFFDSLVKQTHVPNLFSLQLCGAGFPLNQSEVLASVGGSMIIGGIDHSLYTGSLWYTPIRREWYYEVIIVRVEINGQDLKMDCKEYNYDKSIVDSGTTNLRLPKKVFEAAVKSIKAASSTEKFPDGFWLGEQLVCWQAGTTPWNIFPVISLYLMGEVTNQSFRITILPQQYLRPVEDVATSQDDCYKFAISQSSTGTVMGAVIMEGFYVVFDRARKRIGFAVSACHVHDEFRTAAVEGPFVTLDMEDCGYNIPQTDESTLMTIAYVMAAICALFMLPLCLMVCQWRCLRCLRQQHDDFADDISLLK
testMethodNotes: In vitro enzymatic BACE FRET (fluorescence resonance energy transfer) assay
Assay type: biochemical
assayContext: average IC50, enzyme assay; read-out: BACE 1 FRET assay
pIC50: −log10 of the molar value.
measurementLabel: pIC50

Previously resolved entries follow.
# compound, numericReadout
data = [
    ("COc1ncccc1-c1ccc2c(c1)[C@@]1(COC(N)=N1)c1cc(/C=C/C(C)(C)C)ncc1O2", 7.70),
    ("CC(C)(C)C#Cc1cc2c(cn1)Oc1ccc(-c3cccnc3F)cc1C21CSC(N)=N1 (centres unmarked)", 8.68),
]

(1) CC1(COc2cc3c(cc2F)Oc2ccc(-c4ccnc(Cl)c4)cc2[C@@]32COC(N)=N2)COC1
(2) CC1(C#Cc2cnc3c(c2)[C@]2(CSC(N)=N2)c2cc(-c4ccc(F)nc4)ccc2O3)COC1
(3) Cn1cc(-c2cc3c(cn2)Oc2ccc(-c4ccccc4)cc2[C@@]32COC(N)=N2)cn1
Put these in order: smallest pIC50 first, largest last. Would you mind listing the labels in the order asked for?
1, 3, 2
(1: 7.30, 3: 7.88, 2: 9.00)

----------
targetOrSystem: Beta Secretase enzyme (BACE) (Homo sapiens)
testMethodNotes: In vitro enzymatic BACE FRET (fluorescence resonance energy transfer) assay
Assay type: biochemical
assayContext: average IC50, enzyme assay; read-out: BACE 1 FRET assay
pIC50: −log10 of the molar value.
measurementLabel: pIC50

Worked cases, pIC50 given:
# molecule, pIC50
data = [
    ("NC1=N[C@@]2(CS1)c1cc(-c3c(F)ccnc3F)ccc1Oc1cnc(-c3ccnc(F)c3)cc12 [Example 1023]", 9.40),
    ("CC1(C)C[C@@H](c2cnc3c(c2)[C@]2(COC(N)=N2)c2cc(-c4cccc(Cl)c4)ccc2O3)CCO1 [Example 465]", 8.77),
    ("CC(C)(C)COc1ccc2c(c1)[C@@]1(COC(N)=N1)c1cc(-c3cncnc3)c(F)cc1O2 [Example 511]", 7.00),
]

(1) NC1=N[C@@]2(CO1)c1cc(-c3cccnc3F)ccc1Oc1c2cc(C2=CCOCC2)nc1F [Example 130]
(2) NC1=N[C@@]2(CS1)c1cc(-c3cccnc3F)ccc1Oc1c2cc(-c2ccnc(F)c2)nc1F (single isomer, unassigned) [Example 996]
(3) COc1ccc(-c2cc3c(cn2)Oc2ccc(-c4cccc(Cl)c4)cc2[C@@]32COC(N)=N2)cc1F [Example 535]
(4) NC1=N[C@@]2(CO1)c1cc(-c3cncc(F)c3)ccc1Oc1c(F)cc([C@@H]3CCCOC3)cc12 [Example 284]
List these items ordered by pIC50, big to small. # output: labels, in the requested order
2, 1, 3, 4
